system: SW-620; experiment: NCI tumour cell line growth inhibition, 48 h
Activity calls are given as the source filed them. No stated cut-off is given here; in the data, active = GI50 up to about 1.1 µM and inactive = higher.
Parameter GI50: see the listing below.

Record excerpt, results attached:
Q: Please list GI50 recorded for the compound "Oc1ccc(I)c2cccnc12"
Ans: 4.43 µM (inactive)

Q: Please list GI50 recorded for the compound "Cc1ccc(/C=N/n2c(Cc3ccccc3)n[nH]c2=O)cc1"
Ans: > 100 µM (inactive)

Q: Please list GI50 recorded for the compound "C/C(=N/NC(=S)Nc1ccccc1Cl)c1ccccn1"
Ans: < 0.0168 µM (active)

We now examine a further compound.
Q: Please list GI50 recorded for the compound "C(=C\C(SCc1ccccc1)SCc1ccccc1)/c1ccccc1"
Ans: > 10 µM (inactive)

###

tested on: UACC-62; assay: NCI tumour cell line growth inhibition, 48 h
The source made the active and inactive calls. Rule as the data show it: active = GI50 up to about 1.1 µM and inactive = higher.
Parameter GI50: see the listing below.

Q: Please list GI50 recorded for the compound NNC(=O)N/N=C1\C(=O)N(c2nccs2)C(=O)C(=O)C1c1nc2ccccc2s1 (stereo not given)
Ans: > 100 µM (inactive)

Q: Please list GI50 recorded for the compound CC(C)(C)[Si](C)(C)OC1(CCc2ccccc2OS(=O)(=O)C(F)(F)F)CCCC=C1COCc1ccccc1 (stereo not given)
Ans: 29.5 µM (inactive)

Q: Please list GI50 recorded for the compound "CN(C)CCNC(=O)c1ccc2ccc3cccnc3c2n1"
Ans: 16.6 µM (inactive)

Q: Please list GI50 recorded for the compound C/C(=C/CC[C@](C)(OC1OC(CO)C(O)C(O)C1O)[C@H]1CC[C@]2(C)[C@@H]1CC[C@@H]1[C@@]3(C)CC[C@H](O)C(C)(C)[C@@H]3C[C@H](O)[C@]12C)CO (stereo not given in full)
Ans: 19.1 µM (inactive)

We now examine a further compound.
Q: Please list GI50 recorded for the compound CC(C)CCCC(C)[C@H]1CC[C@H]2[C@@H]3CC[C@H]4C[C@@H](CCC=C(c5cc(Cl)c(O)c(C(=O)O)c5)c5cc(Cl)c(O)c(C(=O)O)c5)CC[C@]4(C)[C@H]3CC[C@]12C (stereo not given in full)
Ans: > 50 µM (inactive)

###

Parameter GI50: see the listing below.
tested on: SF-268; assay: NCI tumour cell line growth inhibition, 48 h
Calls of active or inactive are those of the source. No stated cut-off is given here; in the data, active = GI50 up to about 1.1 µM and inactive = higher.

Record excerpt, results attached:
Q: Please list GI50 recorded for the compound COc1cc2c3cc1Oc1c(O)c(OC)cc4c1C(Cc1ccc(O)c(c1)Oc1ccc(cc1)CC3N(C)CC2)N(C)CC4 (stereo unspecified)
Ans: 16.8 µM (inactive)

Q: Please list GI50 recorded for the compound C#CCOC(=O)C(N)CCCNC(=N)N (stereo unspecified)
Ans: > 100 µM (inactive)

Q: Please list GI50 recorded for the compound "Oc1cc(O)c2ccc(-c3ccc(O)c(O)c3)[o+]c2c1"
Ans: > 100 µM (inactive)

Q: Please list GI50 recorded for the compound "NNC(=O)c1ccccc1Nc1nc(-c2cccs2)nc2ccc(Br)cc12"
Ans: 31.1 µM (inactive)

Q: Please list GI50 recorded for the compound "COc1cc(OC)c2c(=O)c3c([N+](=O)[O-])cccc3n(C)c2c1"
Ans: > 100 µM (inactive)

We now examine a further compound.
Q: Please list GI50 recorded for the compound "Cc1cc(S(=O)(=O)/N=C(\NN)Nc2ccc(Cl)cc2)c(S)cc1Cl"
Ans: 15.6 µM (inactive)

###

test system: Malme-3M; assay: NCI tumour cell line growth inhibition, 48 h
Active and inactive are the calls of the source. No stated cut-off is given here; in the data, active = GI50 up to about 1.1 µM and inactive = higher.
Answer with one of the outcomes given here: active, inactive

Illustrative cases are given below, each with its answer.
Q: Could you kindly confirm the outcome this assay logged for C/C=C/[C@H]1O[C@@](OC)([C@@H](C)[C@H](O)[C@H](C)[C@H]2OC(=O)/C(OC)=C/C(C)=C/[C@@H](C)[C@@H](O)[C@@H](C)[C@@H](O)[C@H](C)C/C(C)=C/C=C/[C@@H]2OC)CC(OC2CC(O)C(OC(N)=O)C(C)O2)[C@@H]1C (stereo partly drawn) ?
Ans: active

Q: Could you kindly confirm the outcome this assay logged for CC(=O)OCC1OC(NC(=S)Nn2c(=O)[nH]c3ccccc3c2=O)C(OC(C)=O)C(OC(C)=O)C1OC(C)=O (stereo not drawn) ?
Ans: inactive

Q: Could you kindly confirm the outcome this assay logged for CCOC(=O)N(C)CCC1CC=CC(=O)C1c1cccc(OC)c1OC (stereo not drawn) ?
Ans: inactive

Q: Could you kindly confirm the outcome this assay logged for "COc1ccc(-n2nnc(C(N)=O)c2O)cc1" ?
Ans: inactive

Q: Could you kindly confirm the outcome this assay logged for CN1C2CCC1CC(CCNC(c1ccccc1)c1ccccc1)C2 (stereo not drawn) ?
Ans: inactive

Q: Could you kindly confirm the outcome this assay logged for "COc1ccc(/C=C/c2cc(OC)c(OC)c(OC)c2)cc1" ?
Ans: inactive

Q: Could you kindly confirm the outcome this assay logged for "O=C(N/C(=C\c1cc(Cl)ccc1Cl)c1nc2ccccc2[nH]1)c1ccccc1" ?
Ans: inactive

Let us examine a further case.
Q: Could you kindly confirm the outcome this assay logged for "O=[N+]([O-])C(/C=N/Nc1ccccc1)/C=N/Nc1ccccc1" ?
Ans: inactive

###

system: NCI-H522; test: NCI tumour cell line growth inhibition, 48 h
Active and inactive are the calls of the source. Cut-off read from the data, not from the text of the source: active = GI50 up to about 1.1 µM and inactive = higher.
Answer with one of the outcomes given here: active, inactive

Q: Could you kindly confirm the outcome this assay logged for CC12C(=O)OC(=O)C1(C)C1C=CC2O1 (stereo not drawn) ?
Ans: inactive

Q: Could you kindly confirm the outcome this assay logged for "COc1ccc(CNC2=C(NC(C)=O)C(=O)c3ccccc3C2=O)cc1" ?
Ans: inactive

Q: Could you kindly confirm the outcome this assay logged for CC(=O)OCc1nnn2c1C(OC(C)=O)CC2 (stereo not drawn) ?
Ans: inactive

Q: Could you kindly confirm the outcome this assay logged for O=c1c2ccccc2n2n1CC(O)C2 (stereo not drawn) ?
Ans: inactive

Q: Could you kindly confirm the outcome this assay logged for "CCOC(=O)CN1C(=O)C(=O)N(c2ccc(OC)c3ccccc23)C1=O" ?
Ans: inactive

Q: Could you kindly confirm the outcome this assay logged for CCC1N2CCCCC2[C@@H]2c3[nH]c4ccccc4c3CCN12 (stereo partly drawn) ?
Ans: inactive

Next:
Q: Could you kindly confirm the outcome this assay logged for "COC1=CC(=O)c2c(cc(COP(=O)(N(C)CCBr)N(C)CCBr)n2C)C1=O" ?
Ans: active

Q: Could you kindly confirm the outcome this assay logged for "CCOC(=O)c1c(N2CCCC2)[nH]c(=O)c(C(c2c(O)c(C(=O)OCC)c(N3CCCC3)[nH]c2=O)C(C)C)c1O" ?
Ans: inactive

Q: Could you kindly confirm the outcome this assay logged for "Nc1nc(Cl)c(N)c(NCC2(CO)CCCC2)n1" ?
Ans: inactive

Q: Could you kindly confirm the outcome this assay logged for "Cc1ccc(-c2nc(N/N=C/c3ccc(O)cc3)c3ccccc3n2)cc1" ?
Ans: inactive

Q: Could you kindly confirm the outcome this assay logged for "Cc1cc2c(cc1C)[n+]([O-])c(C(=O)N1CCN(c3ccc([N+](=O)[O-])cc3)CC1)c(C)[n+]2[O-]" ?
Ans: inactive

Q: Could you kindly confirm the outcome this assay logged for COC(=O)C1=C(C(=O)OC)C2(/N=C(\Nc3ccccc3)c3ccccc3)N(c3ccc(OC)cc3)CC(c3ccccc3)N2O1 (stereo not drawn) ?
Ans: inactive

Q: Could you kindly confirm the outcome this assay logged for "N#CC1=C(N2CCCC2)NC(=O)CC1=O" ?
Ans: inactive

###

tested on: A549; test: NCI tumour cell line growth inhibition, 48 h
Calls of active or inactive are those of the source. No stated cut-off is given here; in the data, active = GI50 up to about 1.1 µM and inactive = higher.
Parameter GI50: see the listing below.

Record excerpt, results attached:
Q: Please list GI50 recorded for the molecule "COc1cc(OCc2ccccc2)c2c(CCC(=O)O)cc(=O)oc2c1.COc1cc(OCc2ccccc2)cc2oc(=O)cc(CCC(=O)O)c12"
Ans: 43.3 µM (inactive)

Q: Please list GI50 recorded for the molecule Clc1ccc(Cc2nc3cc(Cl)c(Cl)cc3n2CC2CCCN3CCCCC23)cc1Cl (stereo not drawn)
Ans: 4.93 µM (inactive)

We now examine a further molecule.
Q: Please list GI50 recorded for the molecule "Cc1cn(CCCCC2=NCCCN2)c(=O)[nH]c1=O"
Ans: > 35.1 µM (inactive)

###

tested on: UACC-257; assay: NCI tumour cell line growth inhibition, 48 h
Calls of active or inactive are those of the source. No stated cut-off is given here; in the data, active = GI50 up to about 1.1 µM and inactive = higher.
Answer with one of the outcomes given here: Y for active, N for inactive

Q: Could you kindly confirm the outcome this assay logged for [C-]#[N+]C(C)(C)C[C@H]1CC(C)C2CCC(C)C3([N+]#[C-])CCC(=C)C1[C@H]23 (some centres undefined) ?
Ans: Y

Q: Could you kindly confirm the outcome this assay logged for "O=C1Cc2ccccc2N1c1c(Cl)cccc1Cl" ?
Ans: N

Q: Could you kindly confirm the outcome this assay logged for CCN(CC)c1ccc2c(c1)Oc1ccc(N(CC)CC)cc1C21Oc2ccccc2-c2c1c1ccccc1n2CC (centres undefined) ?
Ans: N

Let us examine a further case.
Q: Could you kindly confirm the outcome this assay logged for COc1ccc(C2c3cc4c(cc3OC(N3CCOCC3)C2C)OCO4)c(OC)c1OC (centres undefined) ?
Ans: N

Origin of values: ChEMBL document CHEMBL1201862
